Source: the supplement of paper PMC9732359

assay: protein stability index of a GFP-peptide fusion (yeast GPS) (PSI 1-4); higher = more stable; sorted into four equal gates, so the index is relative within each strain; conditions: ubr1∆
The label depends only on protein stability index: t if it is at least 3, f if it is smaller.

Prompt: In plain terms: is recorded protein stability index at least 3 for QKYNQIQKQIETIQADL [SMC2] ?
Response: f

* * *

Assign protein stability index to each entry below.
assay: protein stability index of a GFP-peptide fusion (yeast GPS) (PSI 1-4); higher = more stable; sorted into four equal gates, so the index is relative within each strain; conditions: doa10∆
Give bare numbers.

LYGTAIGARSQGAKTYL [PRE5]
2.88

Provide each entry's protein stability index from the list below.
1. DLKKFTSTITKYKQLLL [RPN3]
2. IDEAHRIKNEQSALSQI [ISW2]

Response:
2.92
2.6

Give protein stability index for each of the items listed below.
1. QVVTTVASQSPHATATE [SNF6]
2. QVSINSNKILVYESEME [YIL149C/MLP2]
3. DAITVKDVKAWAGKRLW [COR1]

Response:
2.56
2.3
3.01

// for each sequence in input: emit protein stability index
1. IKEFVDDLKKDHIAIDW [DSN1]
2. QEQGSFQHILRLLNTNV [RPS18A]
3. RQLANLIPFIVKQVLLS [NUT1]
4. GEANKHHWEDLQKRVIE [RPN5]
5. LTDPMTVMFFYHNKHMM [DIB1]
6. YGHVFLGITGLATDVTT [PUP3]
7. LIENCKQVLDVDPVYKD [FAS2]
8. KEKKELQMRLKESEISH [YIL149C/MLP2]

Response:
[2.56, 2.97, 1.62, 2.98, 2.19, 1.93, 3.14, 2.6]

Could you tell me protein stability index for each of these sequences? They are listed below.
1. AAKLRTLDYAERHGYIR [RPL2A]
2. CVAAWGVCNHAFHLHCI [HRT1]
3. TTSEKQEVTNEAPFLTS [GAL11]
4. SGRNIHLAVVCVDDNSK [SSN2]
5. TPRDRRKSVFAPLNFNP [SSN2]
6. RKSAPVDSWDREFLKVD [SKP1]

Response:
3.38
1.69
3.2
2.14
2.68
3.25
